Where do the numbers come from? From patent US8039490B2.

target: human D3 dopamine receptor (Homo sapiens, UniProt P35462); construct: expressed in transfected cells; host or cells: HEK-293 EBNA cells (transient transfection), membrane preparation; assay: Radioligand binding, human D3 receptor ([3H]-spiperone); details: first value of the cell; membranes of transfected HEK-293 EBNA cells, 0.5 nM [3H]-spiperone; read-out: Ki(nM) D3/5HT2A/D2: D3
Sequence (P35462 whole entry): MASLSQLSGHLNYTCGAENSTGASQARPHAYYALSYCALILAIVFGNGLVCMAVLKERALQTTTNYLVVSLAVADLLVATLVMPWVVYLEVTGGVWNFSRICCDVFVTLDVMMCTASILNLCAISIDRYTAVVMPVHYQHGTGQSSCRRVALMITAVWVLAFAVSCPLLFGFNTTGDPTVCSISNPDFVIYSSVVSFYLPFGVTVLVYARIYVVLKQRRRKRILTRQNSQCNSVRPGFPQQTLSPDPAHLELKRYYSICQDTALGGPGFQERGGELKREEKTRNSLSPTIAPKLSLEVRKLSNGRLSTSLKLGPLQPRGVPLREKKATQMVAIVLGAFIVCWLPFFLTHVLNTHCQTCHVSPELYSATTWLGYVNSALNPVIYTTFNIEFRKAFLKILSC
resultType: log10 of Ki (log10 of the value in nM)
Field: value | Transform: log10 | Quantity: Ki | Unit: nM

Reference set (6 entries):
1) Cc1ccc(NC(=O)N[C@H]2CC[C@H](CCN3CCC(C(=O)c4ccc(F)cc4)CC3)CC2)cc1	0.60
2) COCCC(=O)N[C@H]1CC[C@H](CCN2CCC(F)(C(=O)c3ccc(F)cc3)CC2)CC1	1.46
3) O=C(CCOc1ccccc1)N[C@H]1CC[C@H](CCN2CCC(C(=O)c3ccc(F)cc3)CC2)CC1	0.90
4) O=C(N[C@H]1CC[C@H](CCN2CCC(C(=O)c3ccc(F)cc3)CC2)CC1)c1ccnc2ncccc12	1.26
5) COc1cc(CC(=O)N[C@H]2CC[C@H](CCN3CCC(C(=O)c4ccc(F)cc4)CC3)CC2)cc(OC)c1	1.46
6) O=C(NC[C@@H]1C[C@H]1CN1CCC(C(=O)c2ccc(F)cc2)CC1)Nc1ccc(Cl)cc1 (relative stereo)	1.18

Exam item: Return log10 of Ki for the following compound: `CC(C)(CO)C(=O)N[C@H]1CC[C@H](CCN2CCC(C(=O)c3ccc(F)cc3)CC2)CC1`
Marked response: 2.32

Exam item: Return log10 of Ki for the following compound: `CCOCCC(=O)N[C@H]1CC[C@H](CCN2CCC(C(=O)c3ccc(F)cc3)CC2)CC1`
Marked response: 1.11

Exam item: Return log10 of Ki for the following compound: `CN(C(=O)N[C@H]1CC[C@H](CCN2CCC(C(=O)c3ccc(F)cc3)CC2)CC1)c1ccc(Cl)cc1`
Marked response: 2.16

Exam item: Return log10 of Ki for the following compound: `O=C(N[C@H]1CC[C@H](CCN2CCC(C(=O)c3ccc(F)cc3)CC2)CC1)c1ccc(-n2cccc2)cc1`
Marked response: 0.78

Exam item: Return log10 of Ki for the following compound: `O=C(N[C@H]1CC[C@H](CCN2CCC(O)(C(=O)c3ccccc3)CC2)CC1)c1ccnc2ccccc12`
Marked response: 2.04

Exam item: Return log10 of Ki for the following compound: `O=C(N[C@H]1CC[C@H](CCN2CCC(C(=O)c3ccc(F)cc3)CC2)CC1)c1ccc(Cl)cc1Cl`
Marked response: 1.18

Exam item: Return log10 of Ki for the following compound: `CC(C)(C(=O)N[C@H]1CC[C@H](CCN2CCC(C(=O)c3ccc(F)cc3)CC2)CC1)c1ccc(Cl)cc1`
Marked response: 2.16

Exam item: Return log10 of Ki for the following compound: `O=C(c1ccc(F)cc1)C1CCN(CC[C@H]2CC[C@H](NC(=O)C3(O)CC3)CC2)CC1`
Marked response: 1.28

Exam item: Return log10 of Ki for the following compound: `CC(=O)N[C@H]1CC[C@H](CCN2CCC(C(=O)c3ccccc3Cl)CC2)CC1`
Marked response: 1.59

* * *

target: human 5-HT2A serotonin receptor (Homo sapiens, UniProt P28223); construct: expressed in transfected cells; host or cells: HEK-293 EBNA cells (transient transfection), membrane preparation; assay: Radioligand binding, human 5-HT2A receptor ([3H]-ketanserin); details: second value of the cell; membranes of transfected HEK-293 EBNA cells, 1.1 nM [3H]-ketanserin; read-out: Ki(nM) D3/5HT2A/D2: 5HT2A
Sequence (P28223 whole entry): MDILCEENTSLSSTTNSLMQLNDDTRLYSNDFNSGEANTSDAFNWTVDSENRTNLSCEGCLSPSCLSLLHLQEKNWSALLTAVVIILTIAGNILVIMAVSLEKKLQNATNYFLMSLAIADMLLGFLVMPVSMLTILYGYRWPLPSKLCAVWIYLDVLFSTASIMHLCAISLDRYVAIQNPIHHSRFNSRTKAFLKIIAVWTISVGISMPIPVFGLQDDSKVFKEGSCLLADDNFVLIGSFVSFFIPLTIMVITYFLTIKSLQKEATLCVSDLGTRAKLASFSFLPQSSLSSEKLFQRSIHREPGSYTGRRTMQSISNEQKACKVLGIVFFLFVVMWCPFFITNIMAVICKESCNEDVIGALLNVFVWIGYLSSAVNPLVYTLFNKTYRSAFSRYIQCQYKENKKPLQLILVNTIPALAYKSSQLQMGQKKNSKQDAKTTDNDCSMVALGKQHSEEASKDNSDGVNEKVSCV
List of Ki values.
Answer format: numeric, nM implied, no suffix.

Reference set (5 entries):
1) O=C(c1ccc(F)cc1)C1CCN(CC[C@H]2CC[C@H](NC(=O)C3(O)CC3)CC2)CC1 [Example 30A59]	5
2) Cc1ccc(NC(=O)N[C@H]2CC[C@H](CCN3CCC(C(=O)c4ccc(F)cc4)CC3)CC2)cc1 [Example 41]	11
3) COc1cc(CC(=O)N[C@H]2CC[C@H](CCN3CCC(C(=O)c4ccc(F)cc4)CC3)CC2)cc(OC)c1 [Example 30A37]	11
4) O=C(N[C@H]1CC[C@H](CCN2CCC(O)(C(=O)c3ccccc3)CC2)CC1)c1ccnc2ccccc12 [Example 33]	65
5) CN(C)C(=O)N[C@H]1CC[C@H](CCN2CCC(C(=O)c3ccc(F)cc3)CC2)CC1 [Example 42A7]	26

Exam item: Return Ki for the following compound: O=C(N[C@H]1CC[C@H](CCN2CCC(C(=O)c3ccc(F)cc3)CC2)CC1)c1ccc(N2CCOCC2)nn1 [Example 30A25]
Marked response: 5

Exam item: Return Ki for the following compound: O=C(C#Cc1ccccc1)N[C@H]1CC[C@H](CCN2CCC(C(=O)c3ccc(F)cc3)CC2)CC1 [Example 30A28]
Marked response: 5
